Target: HLA-A*02:01 (Homo sapiens, UniProt P04439, D140Y/D185E/D98H/E176V/E277Q/G131W/G231S/I119V/I121R/I166T/I218V/L300P/L318F/N151K/N90K/P208A/P217A/Q86G/Q94H/R138H/R169H/T345S)
Protocol text: MHC binding assay: UV-ligand exchange with beta2m ELISA (exchange yield)
Particulars: binding to HLA-A*02:01, β2m ELISA
Measured property: Peptide exchange (MHC class I binding score, peptide exchange yield)

The cases that follow already have their Peptide exchange (MHC class I binding score, peptide exchange yield) on record.
31 (YLAPELFVNV; listed as Homo sapiens) [compound 31] | “++” (≥20% = ++)
593 (GLPRFGIEMV; listed as Homo sapiens) [compound 593] | “+++” (≥50 = +++)
538 (LLLAHIIAL; listed as Homo sapiens) [compound 538] | “++” (≥20% = ++)
556 (FLTDLEDLTL; listed as Homo sapiens) [compound 556] | “+++” (≥50 = +++)
158 (KLFDVDEDGYI; listed as Homo sapiens) [compound 158] | “+++” (≥50 = +++)
486 (AVMESIQGV; listed as Homo sapiens) [compound 486] | “+++” (≥50 = +++)
236 (GLLEAKVSL; listed as Homo sapiens) [compound 236] | “+++” (≥50 = +++)

Query: Field request: Peptide exchange (MHC class I binding score, peptide exchange yield) | item: 367 (SLQNHNHQL; listed as Homo sapiens) [compound 367]
Response: “+++” (≥50 = +++)

* * *

Target: HLA-A*02:01 (Homo sapiens, UniProt P04439, D140Y/D185E/D98H/E176V/E277Q/G131W/G231S/I119V/I121R/I166T/I218V/L300P/L318F/N151K/N90K/P208A/P217A/Q86G/Q94H/R138H/R169H/T345S)
Protocol text: MHC binding assay: UV-ligand exchange with beta2m ELISA (exchange yield)
Particulars: binding to HLA-A*02:01, β2m ELISA
Measured property: Peptide exchange (MHC class I binding score, peptide exchange yield)

437 (SMAPGLVIQAV; listed as Homo sapiens) [compound 437] | “+++” (≥50 = +++)
16 (VLFQGQASL; listed as Homo sapiens) [compound 16] | “+++” (≥50 = +++)
188 (GLFPVTPEAV; listed as Homo sapiens) [compound 188] | “+++” (≥50 = +++)
377 (FLLDSSASV; listed as Homo sapiens) [compound 377] | “++” (≥20% = ++)
341 (SQIALNEKLVNL; listed as Homo sapiens) [compound 341] | “+++” (≥50 = +++)
544 (LLWDVPAPSL; listed as Homo sapiens) [compound 544] | “+++” (≥50 = +++)
615 (VLPPDTDPA; listed as Homo sapiens) [compound 615] | “++” (≥20% = ++)
255 (VLASYNLTV; listed as Homo sapiens) [compound 255] | “+++” (≥50 = +++)

Query: Field request: Peptide exchange (MHC class I binding score, peptide exchange yield) | item: 478 (YLLHEKLNL; listed as Homo sapiens) [compound 478]
Response: “+++” (≥50 = +++)

Query: Field request: Peptide exchange (MHC class I binding score, peptide exchange yield) | item: 504 (GLSDGNPSL; listed as Homo sapiens) [compound 504]
Response: “++” (≥20% = ++)

Query: Field request: Peptide exchange (MHC class I binding score, peptide exchange yield) | item: 297 (VLADIELAQA; listed as Homo sapiens) [compound 297]
Response: “+++” (≥50 = +++)
